Reference source: patent US20210238298A1

molecular target: CD137 on primary human CD8+ T cells (human, UniProt Q07011 24-255); test: cell-based or functional assay
Sequence (Q07011 24-255 limits assumed): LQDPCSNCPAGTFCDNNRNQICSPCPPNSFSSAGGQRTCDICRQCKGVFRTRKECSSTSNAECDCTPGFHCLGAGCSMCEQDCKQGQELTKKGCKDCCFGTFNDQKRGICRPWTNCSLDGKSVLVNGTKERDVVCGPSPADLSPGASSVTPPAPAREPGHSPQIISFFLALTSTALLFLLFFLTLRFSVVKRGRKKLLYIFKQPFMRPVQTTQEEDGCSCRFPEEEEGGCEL
Mark YES for Min IFN-γ under 8000 pg/mL, NO if at or over.

Would you kindly verify if Min IFN-γ of anti-CD137 antibody 1620/1621 (antibody, IgG1, V domains shown, Produced as IgG) VH: EVQLLESGGGLVQPGGSLRLSCAASGFTFSGYYMYWVRQAPGKGLEWVSGISSSGSYTYYADSVKGRFTISRDNSKNTLYLQMNSLRAEDTAVYYCARSVGPYFDYWGQGTLVTVSS VL: DIQMTQSPSSLSASVGDRVTITCRASQSISSYLNWYQQKPGKAPKLLIYAASSLQSGVPSRFSGSGSGTDFTLTISSLQPEDFATYYCQQGVGPYTFGQGTKLEIK is strictly less than 8000 pg/mL?
YES

Would you kindly verify if Min IFN-γ of anti-CD137 antibody 1618/1619 (antibody, IgG1, V domains shown, Produced as IgG; also called 1618-bio) VH: EVQLLESGGGLVQPGGSLRLSCAASGFTFSYGSMYWVRQAPGKGLEWVSSISSGSGSTYYADSVKGRFTISRDNSKNTLYLQMNSLRAEDTAVYYCARSSYYGSYYSIDYWGQGTLVTVSS VL: DIQMTQSPSSLSASVGDRVTITCRASQSISSYLNWYQQKPGKAPKLLIYAASSLQSGVPSRFSGSGSGTDFTLTISSLQPEDFATYYCQQYYDNLPTFGQGTKLEIK is strictly less than 8000 pg/mL?
YES

Would you kindly verify if Min IFN-γ of anti-CD137 antibody 1626/1627 (antibody, IgG1, V domains shown, Produced as IgG; also called 1626-bio) VH: EVQLLESGGGLVQPGGSLRLSCAASGFTFGGYSMYWVRQAPGKGLEWVSSIGGYYYSTYYADSVKGRFTISRDNSKNTLYLQMNSLRAEDTAVYYCARSYYGSIDYWGQGTLVTVSS VL: DIQMTQSPSSLSASVGDRVTITCRASQSISSYLNWYQQKPGKAPKLLIYAASSLQSGVPSRFSGSGSGTDFTLTISSLQPEDFATYYCQQGTGYGPLTFGQGTKLEIK is strictly less than 8000 pg/mL?
YES

Would you kindly verify if Min IFN-γ of anti-CD137 antibody 1204/1205 (antibody, IgG1, V domains shown, Produced as IgG; also called 1204-bio) VH: EVQLLESGGGLVQPGGSLRLSCAASGFTFSSYYMGWVRQAPGKGLEWVSGIGSYYGYTGYADSVKGRFTISRDNSKNTLYLQMNSLRAEDTAVYYCARAYYDYNYYYAYFDYWGQGTLVTVSS VL: DIQMTQSPSSLSASVGDRVTITCRASQSISSYLNWYQQKPGKAPKLLIYAASSLQSGVPSRFSGSGSGTDFTLTISSLQPEDFATYYCQQSVPHYPFTFGQGTKLEIK is strictly less than 8000 pg/mL?
NO
